assay: Pharmacokinetics of BTB in drainage fluid and portal venous blood after abdominal application of PAN indicator hydrogel (HPLC-MS); assay type: in vivo, domestic pigs (Sus Scrofa Domestica); settings: pig, drainage fluid (peritoneal fluid), other: abdominal application at the pancreatic surgery field, pig drainage fluid, Min 0 (baseline before indicator application), mean of animals; read-out: Drainage BTB-Concentration, Mean
attribute_measured: concentration at 0 min

Prompt: concentration at 0 min for `Cc1c(C2(c3cc(C(C)C)c(O)c(Br)c3C)OS(=O)(=O)c3ccccc32)cc(C(C)C)c(O)c1Br` ?
Response: 1.9 ng/mL

====

assay: Pharmacokinetics of BTB in drainage fluid and portal venous blood after abdominal application of PAN indicator hydrogel (HPLC-MS); assay type: in vivo, domestic pigs (Sus Scrofa Domestica); conditions: pig, portal venous blood, other: abdominal application at the pancreatic surgery field, pig portal venous blood, Min 30, mean of animals; read-out: Portal Venous Blood BTB-Concentration, Mean
attribute_measured: concentration at 30 min (ng/mL)
Answers are plain numbers, in ng/mL.

Prompt: Could you tell me which concentration at 30 min is on file for `Cc1c(C2(c3cc(C(C)C)c(O)c(Br)c3C)OS(=O)(=O)c3ccccc32)cc(C(C)C)c(O)c1Br` ?
Response: 0.53

====

Assay: Pharmacokinetics of BTB in drainage fluid and portal venous blood after abdominal application of PAN indicator hydrogel (HPLC-MS)
Format: in vivo, domestic pigs (Sus Scrofa Domestica)
Details: pig, portal venous blood, other: abdominal application at the pancreatic surgery field, pig portal venous blood, Day 2, individual animals Tox 1-4; read-out: Portal Venous Blood BTB-Concentration
Procedure: PAN toxicology was evaluated by analyzing in vivo pharmacokinetics of its degradation products over 48 hours. Additionally, acute local tissue injury caused by the indicator within minutes as well as macroscopic intra-abdominal side effects and local histological of the device over 8 days were assessed. Finally, cytotoxicity of its degradation products on pancreatic target cells was analyzed. […]
attribute_measured: concentration at 2 day (ng/mL)
One number for each entry, in ng/mL.

Prompt: Find the recorded concentration at 2 day belonging to Cc1c(C2(c3cc(C(C)C)c(O)c(Br)c3C)OS(=O)(=O)c3ccccc32)cc(C(C)C)c(O)c1Br [BTB, bromothymol blue] and report it.
Response: 0

====

experiment: Pharmacokinetics of BTB in drainage fluid and portal venous blood after abdominal application of PAN indicator hydrogel (HPLC-MS); type: in vivo, domestic pigs (Sus Scrofa Domestica); details: pig, drainage fluid (peritoneal fluid), other: abdominal application at the pancreatic surgery field, pig drainage fluid, Min 5, mean of animals; read-out: Drainage BTB-Concentration, Mean
attribute_measured: concentration at 5 min (ng/mL)
Answers are plain numbers, in ng/mL.

Prompt: Look at this molecule and give its reported concentration at 5 min. `Cc1c(C2(c3cc(C(C)C)c(O)c(Br)c3C)OS(=O)(=O)c3ccccc32)cc(C(C)C)c(O)c1Br`
Response: 3170

====

Experiment: Pharmacokinetics of BTB in drainage fluid and portal venous blood after abdominal application of PAN indicator hydrogel (HPLC-MS)
Format: in vivo, domestic pigs (Sus Scrofa Domestica)
Settings: pig, drainage fluid (peritoneal fluid), other: abdominal application at the pancreatic surgery field, pig drainage fluid, Min 60, mean of animals; read-out: Drainage BTB-Concentration, Mean
Protocol: PAN toxicology was evaluated by analyzing in vivo pharmacokinetics of its degradation products over 48 hours. Additionally, acute local tissue injury caused by the indicator within minutes as well as macroscopic intra-abdominal side effects and local histological of the device over 8 days were assessed. Finally, cytotoxicity of its degradation products on pancreatic target cells was analyzed. […]
attribute_measured: concentration at 60 min (ng/mL)
Give bare numbers, in ng/mL.

Prompt: // query concentration at 60 min value for entry Cc1c(C2(c3cc(C(C)C)c(O)c(Br)c3C)OS(=O)(=O)c3ccccc32)cc(C(C)C)c(O)c1Br [BTB, bromothymol blue]
Response: 661
